test: Comparative study in rats: synovial fluid pharmacokinetics after intraarticular dosing; type: in vivo; settings: male, rat, 9.6 ng, across the three formulations, read-out: half-life in SF (converted)
MEASUREMENT_NAME: half-life

IN: Output half-life of C=C(C)[C@]12C[C@@H](C)[C@@]34O[C@](Cc5ccccc5)(O[C@@H]1[C@@H]3C=C(COC(=O)Cc1ccc(O)c(OC)c1)C[C@]1(O)C(=O)C(C)=C[C@@H]41)O2
OUT: ~1.5 h

====

test: Comparative study in rats: knee tissue concentrations after intraarticular dosing; assay type: in vivo; conditions: male, rat, other: intraarticular, 9.6 ng/knee, knee tissues, across the three formulations; read-out: half-life in the tissues (range)
MEASUREMENT_NAME: half-life

IN: Output half-life of C=C(C)[C@]12C[C@@H](C)[C@@]34O[C@](Cc5ccccc5)(O[C@@H]1[C@@H]3C=C(COC(=O)Cc1ccc(O)c(OC)c1)C[C@]1(O)C(=O)C(C)=C[C@@H]41)O2 [Resiniferatoxin]
OUT: 0.895 to 3.21 h
